Reported MIC values follow for various compounds
Test system: vancomycin-resistant enterococci (VRE) cells, VRE 5
EXPERIMENTAL PROTOCOL: MIC in vitro broth micro-dilution assay, VRE 5
Type: cell-based
COND: Enterococcus, VRE; lowest concentration to fully inhibit visible growth (OD600); clinical isolate, ampicillin, ciprofloxacin, vancomycin and linezolid resistant; read-out: in vitro susceptibility (MIC) VRE 5
Expressed in µg/mL, but write only the number.

[[record]]
smiles_repr = "C=C[C@]1(C)C[C@@H](OC(=O)Cn2cc(-c3cccc(NC(=O)c4ccc(OC)cc4)c3)nn2)[C@]2(C)[C@H](C)CC[C@]3(CCC(=O)[C@H]32)[C@@H](C)[C@@H]1O"
tested_target = "vancomycin-resistant enterococci (VRE) cells, VRE 5"
unit_descriptor = "µg/mL"
result_number = 0.25


Task item: For the compound "C=C[C@]1(C)C[C@@H](OC(=O)Cn2cc(-c3ccc(Cn4cnc5c(N)ncnc54)cc3)nn2)[C@]2(C)[C@H](C)CC[C@]3(CCC(=O)[C@H]32)[C@@H](C)[C@@H]1O" , report MIC.
Reply: 0.25

Task item: For the compound "C=C[C@]1(C)C[C@@H](OC(=O)Cn2cc(-c3ccc([C@@H](C)n4cnc5c(N)ncnc54)cc3)nn2)[C@]2(C)[C@H](C)CC[C@]3(CCC(=O)[C@H]32)[C@@H](C)[C@@H]1O" , report MIC.
Reply: 0.25

---

Test system: vancomycin-resistant enterococci (VRE) cells, VRE 1
EXPERIMENTAL PROTOCOL: MIC in vitro broth micro-dilution assay, VRE 1
Format: cell-based
COND: Enterococcus, VRE; lowest concentration to fully inhibit visible growth (OD600); clinical isolate, ampicillin, ciprofloxacin and vancomycin resistant; read-out: in vitro susceptibility (MIC) VRE 1
PROPERTY: MIC (µg/mL)
Expressed in µg/mL, but write only the number.

[[record]]
compound = "C=C[C@]1(C)C[C@@H](OC(=O)Cn2cc(-c3cccc(NC(=O)c4ccc(OC)cc4)c3)nn2)[C@]2(C)[C@H](C)CC[C@]3(CCC(=O)[C@H]32)[C@@H](C)[C@@H]1O [C15]"
unit_descriptor = "µg/mL"
result_number = 0.12

[[record]]
compound = "C=C[C@]1(C)C[C@@H](OC(=O)Cn2cc(-c3ccc([C@@H](C)n4cnc5c(N)ncnc54)cc3)nn2)[C@]2(C)[C@H](C)CC[C@]3(CCC(=O)[C@H]32)[C@@H](C)[C@@H]1O [C12]"
unit_descriptor = "µg/mL"
result_number = 0.25

[[record]]
compound = "C=C[C@]1(C)C[C@@H](OC(=O)Cn2cc(-c3cc(C#N)ccc3O)nn2)[C@]2(C)[C@H](C)CC[C@]3(CCC(=O)[C@H]32)[C@@H](C)[C@@H]1O [C19]"
unit_descriptor = "µg/mL"
result_number = 1


# ---- query compound ----
Task item: For the compound C=C[C@]1(C)C[C@@H](OC(=O)Cn2cc(-c3ccc(Cn4cnc5c(N)ncnc54)cc3)nn2)[C@]2(C)[C@H](C)CC[C@]3(CCC(=O)[C@H]32)[C@@H](C)[C@@H]1O [C1] , report MIC.
Reply: 0.25

---

Tested on: vancomycin-resistant enterococci (VRE) cells, VRE 1
EXPERIMENTAL PROTOCOL: MIC in vitro broth micro-dilution assay, VRE 1
Format: cell-based
COND: Enterococcus, VRE; lowest concentration to fully inhibit visible growth (OD600); clinical isolate, ampicillin, ciprofloxacin and vancomycin resistant; read-out: in vitro susceptibility (MIC) VRE 1
Reported MIC values follow for various compounds
Expressed in µg/mL, but write only the number.

[[record]]
compound = "C=C[C@]1(C)C[C@@H](OC(=O)Cn2cc(-c3ccc(Cn4cnc5c(N)ncnc54)c(O)c3)nn2)[C@]2(C)[C@H](C)CC[C@]3(CCC(=O)[C@H]32)[C@@H](C)[C@@H]1O"
property = "MIC"
result_number = 0.25

[[record]]
compound = "C=C[C@]1(C)C[C@@H](OC(=O)Cn2cc(-c3ccc(Cn4cnc5c(N)nc(N)nc54)cc3)nn2)[C@]2(C)[C@H](C)CC[C@]3(CCC(=O)[C@H]32)[C@@H](C)[C@@H]1O"
property = "MIC"
result_number = 0.25

[[record]]
compound = "C=C[C@]1(C)C[C@@H](OC(=O)Cn2cc(-c3ccc(Cn4cnc5c(N6CCNCC6)ncnc54)cc3)nn2)[C@]2(C)[C@H](C)CC[C@]3(CCC(=O)[C@H]32)[C@@H](C)[C@@H]1O"
property = "MIC"
result_number = 0.06

[[record]]
compound = "C=C[C@]1(C)C[C@@H](OC(=O)CSC2CC[C@@H](N)C[C@H]2O)[C@]2(C)[C@H](C)CC[C@]3(CCC(=O)[C@H]32)[C@@H](C)[C@@H]1O.CC(=O)O (stereo partly drawn) [Lefamulin.Ac, reference compound]"
property = "MIC"
result_number = 0.12

[[record]]
compound = "C=C[C@]1(C)C[C@@H](OC(=O)Cn2cc(-c3ccc(Cn4cnc5c(N6CCNCC6)ncnc54)nc3)nn2)[C@]2(C)[C@H](C)CC[C@]3(CCC(=O)[C@H]32)[C@@H](C)[C@@H]1O"
property = "MIC"
result_number = 0.03


Task item: For the compound "C=C[C@]1(C)C[C@@H](OC(=O)Cn2cc(-c3ccc(Cn4cnc5c(N)ncnc54)nc3)nn2)[C@]2(C)[C@H](C)CC[C@]3(CCC(=O)[C@H]32)[C@@H](C)[C@@H]1O" , report MIC.
Reply: 0.12

The values you see were collected from patent US20230219964A1.
